Every entry's value here was drawn from paper PMC9518248.

assay: Haemolytic activity determination; type: cell-based; conditions: 2% suspension of human red blood cells; 10 µg/mL, human RBCs, 37 °C, 30 min; read-out: Haemolysis (%)
OBSERVATION TYPE: hemolysis at 30 min, 10 µg/mL (%)

MOLECULE: COc1ccc(-n2c(-c3[nH]cnc3C)n[nH]c2=S)cc1 [20b]
OBSERVATION TYPE: hemolysis at 30 min, 10 µg/mL
REPORTED: 0.104

---

Below, each entry is listed with its recorded viability at 24 h, 50 µg/mL.
assay: Cytotoxicity against glioblastoma cells (MTT); format: cell-based, human; settings: human, T98G glioblastoma cells, 50 µg/mL, MTT, read-out: Viability of T98G cells (% of control ± SD)
OBSERVATION TYPE: viability at 24 h, 50 µg/mL (%)

COMPOUND: Cn1nnc2c(C(N)=O)ncn2c1=O [Temozolomide, reference compound]
REPORTED: 55.3

COMPOUND: COc1ccc(-n2c(-c3[nH]cnc3C)n[nH]c2=S)cc1 [20b]
REPORTED: 82.1
